molecular target: A1PI (Homo sapiens, UniProt P01009); construct: Human plasma is currently the only approved source of therapeutic AlPI; assay: A1PI purification from 5 mg hSA + 1 mg A1PI on peptide column, A1PI mass balance; type: binding; conditions: A1PI; 5 mg hSA + 1 mg A1PI, 4° C.; relative to total eluted
Sequence (P01009 25-418): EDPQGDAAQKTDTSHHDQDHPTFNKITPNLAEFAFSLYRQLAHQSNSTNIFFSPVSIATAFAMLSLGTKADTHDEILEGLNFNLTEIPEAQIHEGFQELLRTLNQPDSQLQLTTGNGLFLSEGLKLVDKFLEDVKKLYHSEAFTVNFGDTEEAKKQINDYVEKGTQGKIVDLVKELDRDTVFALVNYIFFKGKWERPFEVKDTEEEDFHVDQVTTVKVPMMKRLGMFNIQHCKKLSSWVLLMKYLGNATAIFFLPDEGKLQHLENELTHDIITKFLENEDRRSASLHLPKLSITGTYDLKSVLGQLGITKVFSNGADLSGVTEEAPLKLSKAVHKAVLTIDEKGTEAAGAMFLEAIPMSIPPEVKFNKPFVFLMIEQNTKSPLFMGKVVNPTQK
Ends that are not written are not given here.
measured attribute: Percent Eluted by Fraction, Flow (%)

RLWRYG	2

I: LIVHRW
II: QYHFWY
III: IWRKYS
IV: IIWLYK
Sort (4 substances) by Percent Eluted by Fraction, Flow: min first. Answer format: the labels, ordered as requested.
I, III, II, IV
(I: 0%, III: 4%, II: 7%, IV: 65%)

====

# key: entry, value: Percent Eluted by Fraction, 2% Acetic Acid
system: Immunoglobulin A (IgA); experiment: Purification from Effluent II+III, IgA mass balance; format: binding, human; details: 1 ml Eff. II+III, 4° C.
Ends that are not written are not given here.
Reply numerically in %, unit not repeated.

YKFRFW	30
RYRIFI	60
RLWRYG	31

Consider now this further substance.
Give its Percent Eluted by Fraction, 2% Acetic Acid value. Item: "LIVHRW"
20

====

biological target: A1PI (Homo sapiens, UniProt P01009); construct: Human plasma is currently the only approved source of therapeutic AlPI; assay: A1PI binding on peptide-resin column, injection of 1 mg A1PI in equilibration buffer; conditions: VIFLVR point mutations; 1 mg A1PI, 20° C.
measured attribute: % of Total A1PI Eluted by Fraction (Based on Absorbance at 280 nm), 2% Acetic Acid (%)

H I F L V R: point mutation of VIFLVR, position 1 (HIFLVR)	93
V A F L V R: point mutation of VIFLVR, position 2 (VAFLVR)	92

1: V I F A V R: point mutation of VIFLVR, position 4 (VIFAVR)
2: V I F L Y R: point mutation of VIFLVR, position 5 (VIFLYR)
Identify the item whose % of Total A1PI Eluted by Fraction (Based on Absorbance at 280 nm), 2% Acetic Acid is the smaller number: 1 or 2 // caller expects the label of the chosen entry
2

====

target: A1PI (Homo sapiens, UniProt P01009); construct: Human plasma is currently the only approved source of therapeutic AlPI; experiment: A1PI purification from 5 mg hSA + 1 mg A1PI on peptide column, A1PI mass balance; format: binding; conditions: A1PI; 5 mg hSA + 1 mg A1PI, 20° C.; relative to total eluted
Ends that are not written are not given here.
measured attribute: Percent Eluted by Fraction, Flow (%)

1: IWRKYS
2: ARWYIH
Param pair: 1 , 2 . Output: the one whose Percent Eluted by Fraction, Flow is numerically greater. // caller expects the label of the chosen entry
2
(2: 69%, 1: 0%)

A: RAFWYI
B: YKFRFW
Param pair: A , B . Output: the one whose Percent Eluted by Fraction, Flow is numerically greater. // caller expects the label of the chosen entry
B
(B: 48%, A: 11%)

I: PYWIVR
II: RFIYYT
Identify the item whose Percent Eluted by Fraction, Flow is the smaller number: I or II // caller expects the label of the chosen entry
I
(I: 9%, II: 35%)

====

Molecular target: apolipoprotein alpha-1 (Apo A-1) (Homo sapiens)
Construct: Eff; II+III is a process intermediate in the Cohn plasma fractionation process; tissue Bayer Corporation (Clayton, N.C.); host or cells: plasma fraction: Cohn Effluent II+III
Sequence (P02647 19-267): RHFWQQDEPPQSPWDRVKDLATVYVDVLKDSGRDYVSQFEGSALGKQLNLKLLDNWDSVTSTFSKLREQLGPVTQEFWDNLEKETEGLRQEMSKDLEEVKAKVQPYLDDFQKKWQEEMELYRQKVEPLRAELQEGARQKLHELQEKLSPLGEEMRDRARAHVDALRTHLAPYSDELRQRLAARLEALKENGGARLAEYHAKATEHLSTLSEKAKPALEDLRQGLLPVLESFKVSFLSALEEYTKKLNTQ
Test: Purification from Effluent II+III, Apo A-1 mass balance
Type: binding
Conditions: 1 ml Eff. II+III, 4° C.
Description: Sequences 1-11 and 15 were assayed with Effluent II+III (Eff. II+III). Eff. II+III is a process intermediate in the Cohn plasma fractionation process. The feed stream contains 20% (by volume) ethanol, 20-25 mg/ml hSA and approximately 1 mg/ml AlPI. […]
Ends that are not written are not given here.
measured attribute: Percent Eluted by Fraction, Flow (%)

Worked examples follow.
RFIYYT	0
RYRIFI	0

I: RLWRYG
II: LIVHRW
Identify the item whose Percent Eluted by Fraction, Flow is the smaller number: I or II // caller expects the label of the chosen entry
I

====

# key: entry, value: Percent Eluted by Fraction, 1M NaCl
tested on: Immunoglobulin G (IgG); test: Purification from Effluent II+III, IgG mass balance; type: binding, human; conditions: 1 ml Eff. II+III, 4° C.
Ends that are not written are not given here.
Reply numerically in %, unit not repeated.

Worked examples follow.
QYHFWY	10
RAFWYI	9
PYWIVR	10
LIVHRW	0
RFIYYT	7

Consider now this further substance.
Give its Percent Eluted by Fraction, 1M NaCl value. Item: "RLWRYG"
0

====

biological target: A1PI (Homo sapiens); construct: Human plasma is currently the only approved source of therapeutic AlPI; assay: Purification of A1PI from Effluent II+III on peptide column, A1PI mass balance; type: binding; details: A1PI; 1 ml Eff. II+III, 4° C.
Ends that are not written are not given here.
measured attribute: Percent Eluted by Fraction, 1M NaCl (%)

P: RFIYYT
Q: PYWIVR
Param pair: P , Q . Output: the one whose Percent Eluted by Fraction, 1M NaCl is numerically greater. // caller expects the label of the chosen entry
Q
(Q: 16%, P: 5%)

====

target: A1PI (Homo sapiens, UniProt P01009); construct: Human plasma is currently the only approved source of therapeutic AlPI; experiment: A1PI binding on peptide-resin column, injection of 1 mg A1PI in equilibration buffer; conditions: 1 mg A1PI in equilibration buffer, 20° C.
Ends that are not written are not given here.
measured attribute: Percent A1PI Eluted by Fraction, 2% Acetic Acid (%)

1: VIWLVR
2: YKFRFW
Identify the item whose Percent A1PI Eluted by Fraction, 2% Acetic Acid is the smaller number: 1 or 2 // caller expects the label of the chosen entry
2
(2: 25%, 1: 66%)

====

molecular target: A1PI (Homo sapiens, UniProt P01009); construct: Human plasma is currently the only approved source of therapeutic AlPI; test: A1PI purification from 5 mg hSA + 1 mg A1PI on peptide column, A1PI mass balance; type: binding; conditions: A1PI; 5 mg hSA + 1 mg A1PI, 20° C.; relative to total eluted
Ends that are not written are not given here.
measured attribute: Percent Eluted by Fraction, 1M NaCl (%)

Worked examples follow.
IIWLYK	9
IWRKYS	83
ARWYIH	16

a: RFIYYT
b: LIVHRW
Param pair: a , b . Output: the one whose Percent Eluted by Fraction, 1M NaCl is numerically greater. // caller expects the label of the chosen entry
b
(b: 18%, a: 12%)

====

molecular target: A1PI (Homo sapiens, UniProt P01009); construct: Human plasma is currently the only approved source of therapeutic AlPI; test: Purification of A1PI from Effluent II+III on peptide column, A1PI mass balance; format: binding; conditions: A1PI; 1 ml Eff. II+III, 4° C.; * as in Tables 4, 5 (below detection limit)
Ends that are not written are not given here.
measured attribute: Mass Protein per Eluate Fraction, 1M NaCl (mg)

RLWRYG	0.20

A: RFIYYT
B: PYWIVR
C: ARWYIH
Sort (3 substances) by Mass Protein per Eluate Fraction, 1M NaCl: min first. Answer format: the labels, ordered as requested.
A, C, B
(A: 0.05 mg, C: 0.08 mg, B: 0.15 mg)

====

biological target: A1PI (Homo sapiens, UniProt P01009); construct: Human plasma is currently the only approved source of therapeutic AlPI; assay: A1PI binding on peptide-resin column, injection of 1 mg A1PI in equilibration buffer; details: 1 mg A1PI in equilibration buffer, 20° C.
Ends that are not written are not given here.
measured attribute: Percent A1PI Eluted by Fraction, 1M NaCl (%)

Worked examples follow.
LIVHRW	64
IWRKYS	81
RLWRYG	88
IKRYYN	95
PYWIVR	55

A: YKFRFW
B: IIWLYK
Param pair: A , B . Output: the one whose Percent A1PI Eluted by Fraction, 1M NaCl is numerically greater. // caller expects the label of the chosen entry
A
(A: 75%, B: 17%)

====

biological target: A1PI (Homo sapiens, UniProt P01009); construct: Human plasma is currently the only approved source of therapeutic AlPI; experiment: A1PI binding on peptide-resin column, injection of 1 mg A1PI in equilibration buffer; details: VIFLVR point mutations; 1 mg A1PI, 4° C.
measured attribute: % of Total A1PI Eluted by Fraction (Based on Absorbance at 280 nm), 2% Acetic Acid (%)

A I F L V R: point mutation of VIFLVR, position 1 (AIFLVR)	96
N I F L V R: point mutation of VIFLVR, position 1 (NIFLVR)	75
R I F L V R: point mutation of VIFLVR, position 1 (RIFLVR)	100
